The origin of these recorded values is paper PMC3038628.

ASSAY_EXPLANATION: FRET assay of NBD-Toc transfer from α-TTP variants to SUVs
Type: biochemical
EXPERIMENTAL_SETUP: relative to wild type
ATTRIBUTE_MEASURED: Rate of NBD-Toc transfer to SUV, Rate^mut/Rate^wt (%)

[[record]]
molecule = "F165D/M209D: α-TTP double mutant (protein, UniProt P49638 1-278, looked up, variant F165D M209D) Alpha-tocopherol transfer …: MAEARSQPSAGPQLNALPDHSPLLQPGLAALRRRAREAGVPLAPLPLTDSFLLRFLRARDFDLDLAWRLLKNYYKWRAECPEISADLHPRSIIGLLKAGYHGVLRSRDPTGSKVLIYRIAHWDPKVFTAYDVFRVSLITSELIVQEVETQRNGIKAIFDLEGWQDSHAFQITPSVAKKIAAVLTDSFPLKVRGIHLINEPVIFHAVFSDIKPFLTEKIKERIHMHGNNYKQSLLQHFPDILPLEYGGEEFSMEDICQEWTNFIMKSEDYLSSISESIQ"
display_unit = "%"
value_reported = 27

